Values were extracted from ChEMBL document CHEMBL4513216.

List of cytotoxicity at 10 µM values.
# experimentalDetails: Toxicity liver stage against HepG2, at 10uM
# Type: cell-based
# Parameters: test concentration 10 uM, cell line HepG2-A16-CD81EGFP
# setupConditions: human, HepG2-A16-CD81EGFP cells; read-out: INHIBITION
Report the value in % with no unit label.

Known cytotoxicity at 10 µM results, listed for orientation:
| molecule | cytotoxicity at 10 µM / % |
| --- | --- |
| COCC(=O)N1CCCC1c1ccc(C(=O)NCCN2CCCCC2)s1 (stereo unspecified) | 4.26 |
| N#Cc1ccc(C(=O)N2CCC3(CC2)C(=O)Nc2ccccc23)cn1 | 13.5 |
| c1cnc(N2CCO[C@H]3CN(CC4CCOCC4)C[C@H]32)nc1 | -95.9 |
| CC(O)CN1CCN(CCOCC(F)(F)F)CC1 (stereo unspecified) | -3.51 |
| NC(=O)c1cccc(CS(=O)(=O)CC(O)Cn2cccn2)c1 (stereo unspecified) | -2.45 |

Shifting focus to the molecule that follows.
Which cytotoxicity at 10 µM is reported for this molecule? CC(C)c1nnc(NC(=O)C2CSCN2C(=O)C2CCC2)s1 (stereo unspecified) 5.04
